# target: human NPBWR1 (Homo sapiens, UniProt P48145)
# protocolSummary: NPBWR1 antagonist calcium release
# Format: cell-based
# measurementParameters: ratio of NPBWR1 IC50 vs 1j
What fold less potent than 1j was measured for each of the following?

> print(dat)
                            structuresmiles  observedresult
1  C=Cc1cnn(-c2ccc(C(C)C)cc2)c(=O)c1Oc1ccc(OC)cc1         ~9 fold
2  CC(C)c1ccc(-n2ncc(Cl)c(Oc3ccc(OC(F)(F)F)cc3)c2=O)cc1        ~45 fold
3  COc1ccc(Oc2c(C#N)cnn(-c3ccc(C(C)C)cc3)c2=O)cc1       ~ 15 fold
4  COc1ccc(Oc2c(C)cnn(-c3ccc(C(C)C)cc3)c2=O)cc1       ~ 28 fold

Request: Which fold less potent than 1j is listed for `COc1ccc(Oc2c(CO)cnn(-c3ccc(C(C)C)cc3)c2=O)cc1` ?
Result: ~ 21 fold

====

What fold less potent than 1j was measured for each of the following?
# target: human NPBWR1 (Homo sapiens, UniProt P48145)
# protocolSummary: NPBWR1 antagonist calcium release
# Type: cell-based
# measurementParameters: ratio of NPBWR1 IC50 vs 1j
One number for each entry, in fold.

# example entries with known answers
> print(dat)
                                   molecule   uom  observedresult
1  COC(=O)c1nn(-c2ccc(C(C)C)cc2)c(=O)c(Oc2ccc(OC)cc2)c1Cl [9u]  fold              13
2  CCOC(=O)c1nn(-c2ccc(C(C)C)cc2)c(=O)c(Oc2ccc(OC)cc2)c1Cl [9s]  fold              13

Next item in the queue.
Request: Which fold less potent than 1j is listed for COC(=O)c1cnn(-c2ccc(C(C)C)cc2)c(=O)c1Oc1ccc(OC)cc1 [9n] ?
Result: 10

====

# target: human NPBWR1 (Homo sapiens, UniProt P48145)
# Sequence (P48145 1-328): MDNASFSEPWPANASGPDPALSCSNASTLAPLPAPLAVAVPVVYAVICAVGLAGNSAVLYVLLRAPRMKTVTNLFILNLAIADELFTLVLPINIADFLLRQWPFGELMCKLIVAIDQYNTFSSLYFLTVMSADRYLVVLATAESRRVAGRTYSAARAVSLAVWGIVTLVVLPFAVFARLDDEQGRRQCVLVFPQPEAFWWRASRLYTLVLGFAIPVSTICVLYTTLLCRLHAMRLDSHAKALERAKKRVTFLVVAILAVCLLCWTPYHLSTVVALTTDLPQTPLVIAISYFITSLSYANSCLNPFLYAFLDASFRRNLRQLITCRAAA
# protocolSummary: NPBWR1 antagonist calcium release
# Type: cell-based
measurementName: NPBWR1 antagonist activity in words

> print(dat)
                            structuresmiles                      measurementname         observedresult
1  COc1ccc(Oc2c(NC(C)=O)cnn(-c3ccc(C(C)C)cc3)c2=O)cc1  NPBWR1 antagonist activity in words  Total loss of potency
2  COc1ccc(Oc2ccnn(-c3ccc(C(C)C)cc3)c2=O)cc1  NPBWR1 antagonist activity in words  Total loss of potency
3  COc1ccc(Oc2c(N)cnn(-c3ccc(C(C)C)cc3)c2=O)cc1  NPBWR1 antagonist activity in words  Total loss of potency
